Endpoint: MIC. System: M. kansasii (ATCC 12478). Items follow.
State just the number; it will be interpreted in µg/mL.

The following molecules have reported results that may help.
| molecule | readout.unit | experimental.result |
| --- | --- | --- |
| CO[C@H]1/C=C/O[C@@]2(C)Oc3c(C)c(O)c4c(c3C2=O)C2=NC3(CCN(CC(C)C)CC3)NC2=C(NC(=O)/C(C)=C\C=C\[C@H](C)[C@H](O)[C@@H](C)[C@@H](O)[C@@H](C)[C@H](OC(=O)CN2CCC(N(C)c3ccccc3)CC2)[C@@H]1C)C4=O [Compound 39] | µg/mL | 0.003 |
| CO[C@H]1/C=C/O[C@@]2(C)Oc3c(C)c(O)c4c(c3C2=O)C2=NC3(CCN(CC(C)C)CC3)NC2=C(NC(=O)/C(C)=C\C=C\[C@H](C)[C@H](O)[C@@H](C)[C@@H](O)[C@@H](C)[C@H](OC(=O)CN2CCC(N3CCCCC3)CC2)[C@@H]1C)C4=O [Compound 26] | µg/mL | 0.02 |
| CO[C@H]1/C=C/O[C@@]2(C)Oc3c(C)c(O)c4c(c3C2=O)C2=NC3(CCN(CC(C)C)CC3)NC2=C(NC(=O)/C(C)=C\C=C\[C@H](C)[C@H](O)[C@@H](C)[C@@H](O)[C@@H](C)[C@H](OC(=O)CN2CCc3[nH]c5ccccc5c3C2)[C@@H]1C)C4=O [Compound 33] | µg/mL | 0.01 |
| CO[C@H]1/C=C/O[C@@]2(C)Oc3c(C)c(O)c4c(c3C2=O)C2=NC3(CCN(CC(C)C)CC3)NC2=C(NC(=O)/C(C)=C\C=C\[C@H](C)[C@H](O)[C@@H](C)[C@@H](O)[C@@H](C)[C@H](OC(=O)C[n+]2ccc(N(C)C)cc2)[C@@H]1C)C4=O [Compound 35] | µg/mL | 0.003 |
| CO[C@H]1/C=C/O[C@@]2(C)Oc3c(C)c(O)c4c(c3C2=O)C2=NC3(CCN(CC(C)C)CC3)NC2=C(NC(=O)/C(C)=C\C=C\[C@H](C)[C@H](O)[C@@H](C)[C@@H](O)[C@@H](C)[C@H](OC(=O)CN2CCC(O)(Cc3ccccc3)CC2)[C@@H]1C)C4=O [Compound 24] | µg/mL | 0.01 |

GET /values?readout=MIC&item= CO[C@H]1/C=C/O[C@@]2(C)Oc3c(C)c(O)c4c(c3C2=O)C2=NC3(CCN(CC(C)C)CC3)NC2=C(NC(=O)/C(C)=C\C=C\[C@H](C)[C@H](O)[C@@H](C)[C@@H](O)[C@@H](C)[C@H](OC(=O)CN2CCC(n3c(=O)[nH]c5ccccc53)CC2)[C@@H]1C)C4=O [Compound 18]
0.01

###

# Test system: M. xenopi (ATCC 19250)
readout.type: MIC
Form entry: enter the amount, then its unit.

Examples with answers:
| compound.string | MIC |
| --- | --- |
| CO[C@H]1/C=C/O[C@@]2(C)Oc3c(C)c(O)c4c(c3C2=O)C2=NC3(CCN(CC(C)C)CC3)NC2=C(NC(=O)/C(C)=C\C=C\[C@H](C)[C@H](O)[C@@H](C)[C@@H](O)[C@@H](C)[C@H](OC(C)=O)[C@@H]1C)C4=O | 0.01 µg/mL |
| CO[C@H]1/C=C/O[C@@]2(C)Oc3c(C)c(O)c4c(c3C2=O)C2=NC3(CCN(CC(C)C)CC3)NC2=C(NC(=O)/C(C)=C\C=C\[C@H](C)[C@H](O)[C@@H](C)[C@@H](O)[C@@H](C)[C@H](OC(=O)CN2CCCN(c3ccc(F)cc3)CC2)[C@@H]1C)C4=O | 0.01 µg/mL |
| CO[C@H]1/C=C/O[C@@]2(C)Oc3c(C)c(O)c4c(c3C2=O)C2=NC3(CCN(CC(C)C)CC3)NC2=C(NC(=O)/C(C)=C\C=C\[C@H](C)[C@H](O)[C@@H](C)[C@@H](O)[C@@H](C)[C@H](OC(=O)CNC2CCN(C)CC2)[C@@H]1C)C4=O | 0.08 µg/mL |

Quick one: MIC of CO[C@H]1/C=C/O[C@@]2(C)Oc3c(C)c(O)c4c(c3C2=O)C2=NC3(CCN(CC(C)C)CC3)NC2=C(NC(=O)/C(C)=C\C=C\[C@H](C)[C@H](O)[C@@H](C)[C@@H](O)[C@@H](C)[C@H](OC(=O)CN2CCC(N(C)c3ccccc3)CC2)[C@@H]1C)C4=O ?
0.003 µg/mL

Would you kindly share the measured MIC for CO[C@H]1/C=C/O[C@@]2(C)Oc3c(C)c(O)c4c(c3C2=O)C2=NC3(CCN(CC(C)C)CC3)NC2=C(NC(=O)/C(C)=C\C=C\[C@H](C)[C@H](O)[C@@H](C)[C@@H](O)[C@@H](C)[C@H](OC(=O)CN2CCC(n3c(=O)[nH]c5ccccc53)CC2)[C@@H]1C)C4=O ?
0.01 µg/mL
